# fluorescence intensity listing for each entry below
Protocol text: compound fluorescence in toxin protease inhibitor counterscreen, primary screen, artefact control for toxin protease inhibitor project, biochemical, multiplex microsphere, HTS (AID 624483)
Condition: compound autofluorescence counterscreen, microsphere flow cytometry; active compounds read high
The campaign covered roughly 360,000 compounds. About 11,000 (3.1%) were called active. Roughly 2% stayed inconclusive and do not appear here. For the sample, actives were picked, then their nearest neighbours and some compounds at random.
Reply with just the number.

Some compounds with known fluorescence intensity results, for comparison:
CNc1cnc(-c2cc(OC)c(OC)c(OC)c2)cn1: 3800
Cc1ccc(Cn2c(=N)c(S(=O)(=O)c3ccc(C)cc3)cc3c(=O)n4ccccc4nc32)cc1: 4390
Cc1ccc(CCNC(=O)C2CCN(S(=O)(=O)N3CCCC3)CC2)cc1: 9470
COC(=O)c1ccc(C(=O)OC)c(NC(=S)N2CCCCC2)c1: 5240

## Input Any idea what its fluorescence intensity is? The compound is O=C(O)CCn1c(Cc2ccccc2)nc2ccccc21
## Output 4070

## Input Please look up its fluorescence intensity: Cc1ccc(-c2nc3c(C)cc(Br)cn3c2Cc2ccccc2)cc1
## Output 4960

## Input Fill blank: measured fluorescence intensity of the compound O=C1NC[C@H](Cc2ccc(O)cc2)N(C[C@H]2CCCN2C[C@H](Cc2ccccc2)N2C[C@H](Cc3ccccc3)N(CCc3ccccc3)C(=O)C2=O)C1=O is ____.
## Output 5960

## Input I'd like to know its fluorescence intensity. The compound in question is Cc1ccc(S(=O)(=O)N2CCN(C(=O)Cn3c(=O)cnc4ccccc43)CC2)c(C)c1
## Output 5660

## Input For CCOC(=O)c1cccc(NC(=O)CCn2nnc3ccccc32)c1 , what is its reported fluorescence intensity?
## Output 4180

## Input # query: fluorescence intensity of entry O=C(C1CC(=O)N(C2CCCC2)C1)N1CCC2(CC1)OCCO2 (configuration not stated)
## Output 21300

## Input Query (compound): Cn1c(=O)c2c(nc(Br)n2CCSc2nc3ccccc3o2)n(C)c1=O ; field requested: fluorescence intensity
## Output 20900

## Input Consider the compound shown here: CCN(CC)C(=O)CSc1nc2ccccc2o1 What is its recorded fluorescence intensity?
## Output 2780

----------
Protocol text: compound fluorescence in toxin protease inhibitor counterscreen, primary screen, artefact control for toxin protease inhibitor project, biochemical, multiplex microsphere, HTS (AID 624483)
Condition: compound autofluorescence counterscreen, microsphere flow cytometry
The campaign covered roughly 360,000 compounds. About 11,000 (3.1%) were called active. Another 2% or so got no clear call; they are omitted. No stated cut-off is given here; in the data, active means fluorescence intensity above about 16000; inconclusive means no clear call, values can overlap the other calls; inactive means below that. The full list was thinned out, with actives kept by preference.
Give your call using only these classes: active, inactive

CS(=O)(=O)N(CC(=O)N1CCc2ccccc2C1)c1ccc(Br)cc1: inactive

## Input So what was the verdict on C[C@H]1COc2cc(N3CCSCC3)ccc2S(=O)(=O)N1 in this test?
## Output inactive

## Input Outcome? CCOC(=O)c1ccc2c(c1)nc(SCC(=O)NC(C)C)n2CC
## Output active

## Input // outcome(item) with item = CCCNC(=O)c1cc(C2CCCCN2S(=O)(=O)c2cn(C)cn2)on1 (stereo unspecified)
## Output inactive

----------
Protocol text: compound fluorescence in toxin protease inhibitor counterscreen, primary screen, artefact control for toxin protease inhibitor project, biochemical, multiplex microsphere, HTS (AID 624483)
Condition: compound autofluorescence counterscreen, microsphere flow cytometry; active compounds read high
In all, about 360,000 compounds went through this assay and about 11,000 (3.1%) were called active. Another 2% or so got no clear call; they are omitted. What follows is part of a selection rich in actives, with near analogues and random picks from the rest.
Listed next: entries and their corresponding fluorescence intensity.
Form field (numeric): enter value without unit.

Record excerpt, results attached:
CC(C)CC(NC(=O)C1CCCN1C(=O)[C@@H](C)NC(=O)OCc1ccccc1)C(=O)NCC(N)=O (stereo partly specified): 3990
Cc1cc(O)ccc1-c1cc(C(=O)NCc2cc(C(F)(F)F)cc(C(F)(F)F)c2)[nH]n1: 4030
c1cnn(-c2cc(N3CCOCC3)ncn2)c1: 17000
CCC(C(=O)N1CCN(S(=O)(=O)c2sc(C(=O)O)c(C)c2C(=O)O)CC1)c1ccccc1 (stereo unspecified): 9090

Kindly consider the entry below.
## Input Given the entry CC(=O)N(O)CCCCCNC(=O)CCC(=O)N(O)CCCCCNC(=O)CCC(=O)N(O)CCCCCNC(=O)CCC(=O)O , report its measured fluorescence intensity.
## Output 3470

----------
Protocol text: compound fluorescence in toxin protease inhibitor counterscreen, primary screen, artefact control for toxin protease inhibitor project, biochemical, multiplex microsphere, HTS (AID 624483)
Condition: compound autofluorescence counterscreen, microsphere flow cytometry
Among all 360,000 compounds or so, about 11,000 (3.1%) were called active. Inconclusive results (about 2%) are left out. No stated cut-off is given here; in the data, active means fluorescence intensity above about 16000; inconclusive means no clear call, values can overlap the other calls; inactive means below that. Many of the other results were omitted from the sample, so actives are more common in it than they were.
Write down one outcome, taken from 1 (active), 0 (inactive)

Cn1cccc1Cc1nnc(SCC(=O)NCCc2ccccc2)n1-c1ccc(F)cc1: 0

## Input GET /call?item= CCOC(=O)c1cc(-c2nnc(-c3cc(OC)c(OC)c(OC)c3)o2)c(C)nc1C returns the recorded outcome of this test.
## Output 0

## Input What did this assay record as the result for CN(C1CCS(=O)(=O)C1)S(=O)(=O)c1ccc2ccccc2c1 (configuration not stated) ?
## Output 0

## Input Which outcome was entered for the compound COc1ccc(OC)c(CNC(=O)C2CCCN(c3nc4ccccc4o3)C2)c1 (configuration not stated) in this test?
## Output 0

## Input Per the records of this test, what outcome belongs to COc1ccccc1CNC(=O)C1CCN(c2nc3ccccc3o2)CC1 ?
## Output 1

## Input Which outcome was assigned to COC(=O)c1ccc(CN2C(=O)C(Cc3ccccc3)ON=C2c2ncccc2C)o1 (configuration not stated) in this test?
## Output 0

## Input Returns: the outcome recorded for CN(C)CCNC(=O)Nc1cccc(Cl)c1Cl in this assay.
## Output 0

## Input Recorded test outcome, item CCOc1ncccc1C(=O)N(C)CC(=O)Nc1ccc(F)cc1
## Output 0

## Input Look up the recorded call for CCOc1cc(C)c(S(=O)(=O)NCc2ccccn2)cc1C in this test.
## Output 0

----------
Protocol text: compound fluorescence in toxin protease inhibitor counterscreen, primary screen, artefact control for toxin protease inhibitor project, biochemical, multiplex microsphere, HTS (AID 624483)
Condition: compound autofluorescence counterscreen, microsphere flow cytometry; active compounds read high
Screen size: about 360,000 compounds; about 11,000 (3.1%) were called active. Inconclusive results (about 2%) are left out. The sample holds actives, similar compounds and a random draw of the others, so the mix is not that of the screen.
Experimental readout: fluorescence intensity
Please reply with the value in numeric form only.

// below: answered compounds
CCOc1cc2[nH]c(=S)n(Cc3ccc(C(=O)N4CCN(C)CC4)cc3)c(=O)c2cc1OCC: 5670
CS(=O)(=O)N1CCN(C(=O)c2cc3ccccc3oc2=O)CC1: 20900
COc1ccc(OC)c(C(=O)c2coc3ccc(O)c(CN4CCOCC4)c23)c1: 22400

## Input Consider the compound C(=N/N1CCN(c2ccccc2)CC1)/c1cccs1 and give its measured fluorescence intensity.
## Output 23100

## Input GET /values?readout=fluorescence intensity&item= COc1ccc(C(=O)C(C)OC(=O)c2cccc(S(=O)(=O)Nc3c(C)n(C)n(-c4ccccc4)c3=O)c2)cc1 (configuration not stated)
## Output 3490

## Input Which fluorescence intensity is reported for this compound? COc1ccc(S(=O)(=O)Nc2c(C)n(C)n(-c3ccccc3)c2=O)cc1
## Output 16100

## Input Please report the recorded fluorescence intensity for OC1CCCN(c2ncnc3c2nnn3Cc2c(F)cccc2Cl)C1 (configuration not stated) .
## Output 4220

## Input // returns reported fluorescence intensity for input COc1cccc2cc(C(=O)N3CCN(C(=O)c4ccccc4)CC3)c(=O)oc12
## Output 2640

## Input Reported fluorescence intensity, compound COc1cccc(-c2cnc3c(NC(C)=O)cc(-c4cccc(NC(C)=O)c4)cn23)c1 : ____
## Output 3610

----------
Protocol text: compound fluorescence in toxin protease inhibitor counterscreen, primary screen, artefact control for toxin protease inhibitor project, biochemical, multiplex microsphere, HTS (AID 624483)
Condition: compound autofluorescence counterscreen, microsphere flow cytometry
Out of some 360,000 compounds screened, about 11,000 (3.1%) were called active. Not shown: some 2% with an inconclusive outcome. No stated cut-off is given here; in the data, active means fluorescence intensity above about 16000; inconclusive means no clear call, values can overlap the other calls; inactive means below that. The full list was thinned out, with actives kept by preference.
The reply should be one of these categories: 1 = active, 0 = inactive

The examples below pair each entry with its known result.
Cc1ccc(C(C)NC(=O)Cn2nc(C)c([N+](=O)[O-])c2C)cc1 (centres undefined): 0
COc1cccc(CNC(=O)c2cccnc2Sc2ccc(Cl)cc2)c1: 0
CCOC(=O)c1cnc(-n2nc(C)cc2C)nc1NNc1cc(C)nc(-c2ccccc2)n1: 0
Cc1ccn(CC(=O)N2N=C(C(F)F)CC2(O)C(F)F)n1 (centres undefined): 0
Cc1cc2ccccn2c1C(=O)c1cccc(S(=O)(=O)N2CCOCC2)c1: 0
c1ccc(CSc2nnc(-c3ccco3)c(-c3ccco3)n2)cc1: 1
OC(c1ccccc1)c1nc(/C=C/c2ccc(C(F)(F)F)cc2)cs1 (centres undefined): 0
Cc1ccccc1-c1nc(NC(C)C)nc2cc(-c3ccccc3)sc12: 0

Next up:
## Input What outcome does the record of this test show for CCN1C(=O)[C@H]2[C@@H](c3ccc(C(F)(F)F)cc3)N[C@]3(CCCN(Cc4ccc(Br)cc4)C3=O)[C@H]2C1=O ?
## Output 0

// provenance: PubChem BioAssay AID624483
